# Test system: HTT mRNA
# assay.protocol: Splicing RT-qPCR assay, HTT canonical (CJ) and alternative (AJ) junction mRNA
# Format: cell-based, human
# condition.set: Homo sapiens, canonical junction mRNA, qPCR panel; read-out: HTT CJ (decrease in CJ mRNA levels, IC50)
Structures can show the parent of a compound that is named as a salt.

{"compound": "CCN[C@@H]1CCN(c2cnc3nc(-c4cc5cn(C)nc5cc4O)cc(Cl)c3c2)C1", "IC50": "< 100 nM"}
{"compound": "CN[C@@H]1CCN(c2cnc3nc(-c4cc5cn(C)nc5c(C)c4O)nc(OC)c3c2)C1", "IC50": "< 100 nM"}
{"compound": "Cc1c(O)c(-c2ccc3c(Cl)c(N4C[C@@H](C)N[C@@H](C)C4)cnc3n2)cc2cn(C)nc12", "IC50": "1000 to 10000 nM"}
{"compound": "Cc1c(O)c(-c2cc(Cl)c3cc(N4CCNC(C)C4)cnc3n2)cc2cn(C)nc12 (stereo not drawn)", "IC50": "100 to 1000 nM"}
{"compound": "CN1CCC[C@H]2CN(c3cnc4nc(-c5cc(F)c6nn(C)cc6c5)cc(Cl)c4c3)C[C@H]21", "IC50": "> 10000 nM"}
{"compound": "CN1CCC[C@@H]2CN(c3cnc4nc(-c5cc6cn(C)nc6c(F)c5O)cc(Cl)c4c3)C[C@@H]21", "IC50": "100 to 1000 nM"}
{"compound": "Cc1c(O)c(-c2cc(C#N)c3cc(N4C[C@H](C)N[C@@H](C)C4)cnc3n2)cc2cn(C)nc12", "IC50": "100 to 1000 nM"}
{"compound": "CN(C)[C@H]1CCN(c2cnc3nc(-c4cc5cn(C)nc5c(F)c4O)cc(Cl)c3c2)C1", "IC50": "< 100 nM"}
{"compound": "Cn1cc2cc(-c3ccc4cc(N5CCC(NC(C)(C)C)C5)cnc4n3)c(O)cc2n1 (stereo not drawn) [Compound 134, hydrochloride]", "IC50": "100 to 1000 nM"}

---

# Tested on: MYB mRNA
# assay.protocol: Splicing RT-qPCR assay, MYB canonical (CJ) and alternative (AJ) junction mRNA
# Type: cell-based, human
# condition.set: Homo sapiens; canonical junction mRNA, RT-qPCR, A673 or K562 cells, 24 hours treatment; read-out: MYB CJ (IC50, decrease in CJ mRNA)
Where a name gives a salt, the structure may show the parent alone.
This section presents molecules with their documented IC50 values.

{"molecule": "CN(c1cnc2nc(-c3cc(F)c4nn(C)cc4c3)ccc2c1)[C@H]1CCNC1 [Compound 367]", "IC50": "1000 to 10000 nM"}
{"molecule": "CN(C)C1CCN(c2cnc3nc(-c4cc5cn(C)nc5cc4O)ccc3c2)CC1 [Compound 316]", "IC50": "100 to 1000 nM"}
{"molecule": "C[C@@H]1CN(c2cnc3nc(-c4cc(F)c5nn(C)cc5c4)cc(Cl)c3c2)C[C@@H](C)N1 [Compound 251]", "IC50": "100 to 1000 nM"}
{"molecule": "CCN[C@@H]1CCN(c2cnc3nc(-c4cc5cn(C)nc5cc4O)ccc3c2)C1 [Compound 310, hydrochloride]", "IC50": "< 100 nM"}
{"molecule": "CNC1CCN(c2cnc3nc(-c4cc5cn(C)nc5c(C)c4O)ncc3c2)C1 (centres unmarked) [Compound 104]", "IC50": "< 100 nM"}
